Here, each record is paired with measured IC50 (mut)/IC50 (wt) data.
# tested_target: T1, IGFBP-1 (human, UniProt P08833 26-259)
# T1 construct: Biotinylated in the ELISA assays; also called rhIGFBP-1
# T1 sequence (looked up): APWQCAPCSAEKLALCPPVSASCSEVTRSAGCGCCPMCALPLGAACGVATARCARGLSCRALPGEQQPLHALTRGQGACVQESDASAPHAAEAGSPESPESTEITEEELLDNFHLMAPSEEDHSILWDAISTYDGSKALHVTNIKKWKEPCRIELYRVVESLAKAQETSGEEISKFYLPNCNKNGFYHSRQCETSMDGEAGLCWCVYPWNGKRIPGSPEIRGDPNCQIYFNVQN
# measurement_protocol: BIAcore competition (starred): peptide inhibits IGFBP-1 binding to IGF-I; ratio to bp1-01 (wt)
Field format: number, assumed ratio, no unit text.

{"columns": ["binder", "unit_name", "numeric_result"],
 "data": [
  ["CRKGPLQWLCELYF (g8 bp1-01 selectant) [bp1-10]", "ratio", 1.1],
  ["CRKGPLQWLCEKYF (g8 bp1-01 selectant) [bp1-11]", "ratio", 1.9],
  ["CKEGPLLWLCEKYF (g8 bp1-01 selectant) [bp1-13]", "ratio", 2.5]
]}

API: the following record is the query input.
# input binder: CKEGPLQWLCEKYF (g8 bp1-01 selectant) [bp1-12] ; wanted: its IC50 (mut)/IC50 (wt)
2.9
